Recorded values, source the supplement of paper PMC12350171.

Tested on: P. vulgatus RND KO;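 note: active when median AUC fell below 0.1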
Assay: growth AUC normalised to DMSO control (median) (fraction of control); higher = less growth inhibition, active = hit call of the paper
Details: 20 µM
Structures can show the parent of a compound that is named as a salt.
measured.attribute: growth AUC normalised to DMSO control
Number, no unit, nothing else.

The examples below pair each entry with its known result.
{"molecule": "CC1(C)O[C@@H]2C[C@H]3[C@@H]4C[C@H](F)C5=CC(=O)C=C[C@]5(C)[C@H]4[C@@H](O)C[C@]3(C)[C@]2(C(=O)CO)O1 [Flunisolide]", "growth AUC normalised to DMSO control": 1.03}
{"molecule": "O=C(O)CCC(=O)Nc1ccc(S(=O)(=O)Nc2nccs2)cc1 [Succinylsulfathiazole]", "growth AUC normalised to DMSO control": 1}
{"molecule": "OC(CCN1CCCC1)(c1ccccc1)C1CCCCC1 (centres undefined) [Procyclidine hydrochloride]", "growth AUC normalised to DMSO control": 0.96}

For record C[C@H](CS)C(=O)N1CCC[C@H]1C(=O)O [Captopril] the listed growth AUC normalised to DMSO control is 1.01

Entry under test: CC(C)(Oc1ccc(Cl)cc1)C(=O)O [Clofibric acid] . Its growth AUC normalised to DMSO control was 0.998

For CC(CN(C)C)C(C)(O)Cc1ccc(Cl)cc1 (centres undefined) [Clobutinol hydrochloride] the molecule record lists growth AUC normalised to DMSO control as 0.999

The molecule identified as C[C@H]1[C@@H](O)O[C@@H]2O[C@@]3(C)CC[C@H]4[C@H](C)CC[C@@H]1[C@@]24OO3 [Artenimol] registered its growth AUC normalised to DMSO control at 1.04

The reported growth AUC normalised to DMSO control of the molecule CCN(CC)C(=O)c1cccnc1 [Nikethamide] was 0.992

Entry O=C1[C@@H]2[C@H]3CC[C@H](C3)[C@@H]2C(=O)N1CCCCN1CCN(c2ncccn2)CC1 [Tandospirone] , growth AUC normalised to DMSO control reported as 1.07
